Target: Mitogen-activated protein kinase 14 (Homo sapiens); also: in other assays of this panel Not Active means under 50% inhibition at 10 µM
Sequence (Q16539 whole entry): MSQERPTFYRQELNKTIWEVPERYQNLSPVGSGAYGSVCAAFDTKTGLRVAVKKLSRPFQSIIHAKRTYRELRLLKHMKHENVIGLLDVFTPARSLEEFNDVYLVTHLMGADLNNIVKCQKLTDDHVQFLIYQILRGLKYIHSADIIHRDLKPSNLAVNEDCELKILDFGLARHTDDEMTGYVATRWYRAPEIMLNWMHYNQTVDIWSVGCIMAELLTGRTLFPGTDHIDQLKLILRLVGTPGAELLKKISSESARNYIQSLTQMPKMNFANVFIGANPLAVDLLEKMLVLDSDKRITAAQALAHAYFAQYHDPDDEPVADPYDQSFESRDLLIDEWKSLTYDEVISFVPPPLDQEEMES
Set-up: species or system Escherichia coli
Details: read-out: IC50
QUANTITY NAME: IC50 (nM)
Answers are plain numbers, in nM.

Lookup: // map LIPOPOLYSACCHARIDE E. COLI O55:B5 to recorded IC50 (system: Mitogen-activated protein kinase 14 (Homo sapiens)); also: in other assays of this panel Not Active means under 50% inhibition at 10 µM;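 also: inhibition of p38alpha enzyme activity in a biochemical kinase assay, with myelin basic protein serving as substrate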
Found: 60.6

###

Target: Neutrophil elastase (Homo sapiens); also: in other assays of this panel Not Active means under 50% inhibition at 10 µM
Sequence (P08246 whole entry): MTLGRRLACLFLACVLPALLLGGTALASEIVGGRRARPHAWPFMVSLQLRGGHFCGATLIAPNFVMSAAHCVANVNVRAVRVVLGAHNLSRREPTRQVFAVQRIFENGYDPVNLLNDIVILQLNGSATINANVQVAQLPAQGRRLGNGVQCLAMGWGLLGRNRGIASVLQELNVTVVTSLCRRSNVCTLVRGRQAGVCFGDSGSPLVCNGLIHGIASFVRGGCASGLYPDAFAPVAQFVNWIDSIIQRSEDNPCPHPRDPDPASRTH
Type: tissue-based
QUANTITY NAME: IC50

Some compounds with recorded IC50:
Cc1oncc1C(=O)Nc1ccc(C(F)(F)F)cc1 [LEFLUNOMIDE]: Not Active
CCn1cc(C(=O)O)c(=O)c2cc(F)c(N3CCNCC3)cc21: Not Active
Nc1ncn([C@@H]2O[C@H](CO)[C@@H](O)[C@H]2O)c(=O)n1: Not Active
CCCCN1CCCC[C@H]1C(=O)Nc1c(C)cccc1C: Not Active
COCCc1ccc(OCC(O)CNC(C)C)cc1 (stereo unspecified): Not Active

Consider the record given below.
Lookup: // map N#CC(C#N)=Cc1ccc(O)c(O)c1 to recorded IC50 (system: Neutrophil elastase (Homo sapiens)); also: in other assays of this panel Not Active means under 50% inhibition at 10 µM;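 also: inhibition of neutrophil elastase enzyme activity, measured with a p-nitroanilide-linked peptide substrate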
Found: Not Active

###

Molecular target: Vasopressin V1a receptor (Homo sapiens, UniProt P37288); also: in other assays of this panel Not Active means under 50% inhibition at 10 µM
Sequence (P37288 whole entry): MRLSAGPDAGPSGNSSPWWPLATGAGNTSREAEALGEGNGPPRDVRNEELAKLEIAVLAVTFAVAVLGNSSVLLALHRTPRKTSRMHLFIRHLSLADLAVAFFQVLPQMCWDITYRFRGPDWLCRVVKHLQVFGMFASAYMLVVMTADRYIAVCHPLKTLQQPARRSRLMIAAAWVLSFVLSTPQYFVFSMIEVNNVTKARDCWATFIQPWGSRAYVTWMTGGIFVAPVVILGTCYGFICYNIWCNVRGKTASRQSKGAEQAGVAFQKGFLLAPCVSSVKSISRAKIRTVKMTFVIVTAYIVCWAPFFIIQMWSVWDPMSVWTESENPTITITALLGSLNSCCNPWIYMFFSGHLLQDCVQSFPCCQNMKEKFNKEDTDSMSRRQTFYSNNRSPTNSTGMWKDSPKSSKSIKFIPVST
Type: cell membranes, Membrane
Conditions: hek293
QUANTITY NAME: IC50

Some molecules with recorded IC50:
C[C@H](CCC(=O)O)[C@H]1CC[C@H]2[C@@H]3[C@H](O)C[C@@H]4C[C@H](O)CC[C@]4(C)[C@H]3C[C@H](O)[C@]12C: Not Active
CN1CCN(CCCN2c3ccccc3Sc3ccc(Cl)cc32)CC1: Not Active
CC[C@@]1(O)C[C@H](O[C@H]2C[C@H](N(C)C)[C@H](O[C@H]3C[C@H](O)[C@H](O[C@H]4CCC(=O)[C@H](C)O4)[C@H](C)O3)[C@H](C)O2)c2c(cc3c(c2O)C(=O)c2c(O)cccc2C3=O)[C@H]1C(=O)OC: Not Active
CN(C)CCCN1c2ccccc2Sc2ccccc21: Not Active
C[C@]12CCC(=O)C=C1CC[C@@H]1[C@@H]2CC[C@@]2(C)[C@H]1CC[C@]2(C)O: Not Active

Quick batch: IC50 for everything below.
1. CC(NC(C)(C)C)C(=O)c1cccc(Cl)c1 (stereo not given)
2. NC[C@H]1CC[C@H](C(=O)O)CC1
3. CC[C@@H](CO)NC(=O)[C@@H]1C=C2c3cccc4[nH]cc(c34)C[C@H]2N(C)C1
4. CN(C)CCCN1c2ccccc2Sc2ccc(Cl)cc21
5. C[C@](N)(Cc1ccc(O)c(O)c1)C(=O)O
6. CCCC1O[C@@H]2C[C@H]3[C@@H]4CCC5=CC(=O)C=C[C@]5(C)[C@H]4[C@@H](O)C[C@]3(C)[C@]2(C(=O)CO)O1 (stereo not given in full) [BUDESONIDE]
7. O=C(CCCN1CC=C(n2c(=O)[nH]c3ccccc32)CC1)c1ccc(F)cc1

Found:
1. Not Active
2. Not Active
3. Not Active
4. Not Active
5. Not Active
6. Not Active
7. Not Active

Quick batch: IC50 for everything below.
1. CC1CC(OC(=O)C(O)c2ccccc2)CC(C)(C)C1 (stereo not given) [CYCLANDELATE]
2. CCOC(=O)C1=C(COCCN)NC(C)=C(C(=O)OC)C1c1ccccc1Cl (stereo not given)
3. C[C@@H]1CN(c2c(F)c(N)c3c(=O)c(C(=O)O)cn(C4CC4)c3c2F)C[C@H](C)N1

Found:
1: Not Active; 2: Not Active; 3: Not Active

###

Biological target: Type-2 angiotensin II receptor (Homo sapiens, UniProt P50052); also: in other assays of this panel Not Active means under 50% inhibition at 10 µM
Sequence (P50052 whole entry): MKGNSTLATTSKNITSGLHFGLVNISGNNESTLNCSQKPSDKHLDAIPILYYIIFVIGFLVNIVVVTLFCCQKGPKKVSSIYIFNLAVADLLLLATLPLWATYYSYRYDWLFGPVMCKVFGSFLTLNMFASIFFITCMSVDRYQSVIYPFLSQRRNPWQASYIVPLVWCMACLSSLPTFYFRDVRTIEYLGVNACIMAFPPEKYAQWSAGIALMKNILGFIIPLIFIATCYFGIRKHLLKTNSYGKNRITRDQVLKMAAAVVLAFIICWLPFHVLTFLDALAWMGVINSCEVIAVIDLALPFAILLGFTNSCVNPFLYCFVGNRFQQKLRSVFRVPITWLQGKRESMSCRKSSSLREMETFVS
Type: cell-based
Conditions: cho-k1
QUANTITY NAME: IC50

Some compounds with recorded IC50:
c1ccc(Nc2ccc(Nc3ccccc3)cc2)cc1: Not Active
Cn1ccnc1S [METHIMAZOLE]: Not Active
Cc1onc(-c2ccccc2Cl)c1C(=O)N[C@@H]1C(=O)N2[C@@H]1SC(C)(C)[C@@H]2C(=O)O [CLOXACILLIN]: Not Active
CCCOc1ccccc1-c1nc2nn[nH]c2c(=O)[nH]1 [ZAPRINAST]: Not Active

Quick batch: IC50 for everything below.
1. CC(C)N1CCN(c2ccc(OCC3COC(Cn4cncn4)(c4ccc(Cl)cc4Cl)O3)cc2)CC1 (stereo not drawn) [TERCONAZOLE]
2. CCCCc1oc2ccccc2c1C(=O)c1cc(I)c(OCCN(CC)CC)c(I)c1 [AMIODARONE]

Found:
1. Not Active
2. Not Active

Quick batch: IC50 for everything below.
1. CC/C(=C(\c1ccccc1)c1ccc(OCCN(C)C)cc1)c1ccccc1 [TAMOXIFEN]
2. N[C@@H]1[C@H]2CN(c3nc4c(cc3F)c(=O)c(C(=O)O)cn4-c3ccc(F)cc3F)C[C@@H]12 [TROVAFLOXACIN]
3. Nc1nc(N)nc(-c2cc(Cl)ccc2Cl)n1.O=C(O)/C=C\C(=O)O [IRSOGLADINE MALEATE]
4. OC(Cn1cncn1)(Cn1cncn1)c1ccc(F)cc1F [FLUCONAZOLE]

Found:
["Not Active", "Not Active", "Not Active", "Not Active"]

Quick batch: IC50 for everything below.
1. CC(C)(C)NC(=O)[C@@H]1C[C@@H]2CCCC[C@@H]2CN1C[C@@H](O)[C@H](Cc1ccccc1)NC(=O)[C@H](CC(N)=O)NC(=O)c1ccc2ccccc2n1
2. Nc1c2c(nc3ccccc13)CCCC2 [TACRINE]
3. COc1ccc(C[C@H]2NC[C@H](O)[C@H]2OC(C)=O)cc1 [ANISOMYCIN]
4. Cc1ccc(/N=C/N(C)/C=N/c2ccc(C)cc2C)c(C)c1 [AMITRAZ]
5. O=c1oc2ccccc2c(O)c1Cc1c(O)c2ccccc2oc1=O [DICUMAROL]
6. CCCCc1nc(Cl)c(CO)n1Cc1ccc(-c2ccccc2-c2nnn[nH]2)cc1 [LOSARTAN]
7. CC(=O)[C@@]1(O)CC[C@H]2[C@@H]3C[C@H](C)C4=CC(=O)CC[C@]4(C)[C@H]3CC[C@@]21C

Found:
["Not Active", "Not Active", "Not Active", "Not Active", "Not Active", "Not Active", "Not Active"]

Lookup: // map CNCCc1ccccn1 [BETAHISTINE] to recorded IC50 (system: Type-2 angiotensin II receptor (Homo sapiens, UniProt P50052)); also: in other assays of this panel Not Active means under 50% inhibition at 10 µM
Found: Not Active

###

Biological target: Adenosine receptor A2a (Homo sapiens)
Sequence (P29274 whole entry): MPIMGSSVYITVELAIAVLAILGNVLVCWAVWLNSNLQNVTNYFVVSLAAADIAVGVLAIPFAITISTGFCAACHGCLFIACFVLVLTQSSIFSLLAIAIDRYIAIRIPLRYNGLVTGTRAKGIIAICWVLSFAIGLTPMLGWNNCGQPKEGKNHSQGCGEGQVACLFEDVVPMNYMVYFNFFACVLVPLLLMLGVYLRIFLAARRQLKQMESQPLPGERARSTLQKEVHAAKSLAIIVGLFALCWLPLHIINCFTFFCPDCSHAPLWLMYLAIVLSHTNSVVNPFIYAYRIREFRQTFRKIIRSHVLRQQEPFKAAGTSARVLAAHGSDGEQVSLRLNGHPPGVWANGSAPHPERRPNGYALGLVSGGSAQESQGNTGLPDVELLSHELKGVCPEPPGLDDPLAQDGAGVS
Assay: DRUGMATRIX: Adenosine A2A radioligand binding (ligand: […])
Assay type: cell membranes, Membrane
Conditions: hek293; Not Active = under 50% inhibition at 10 µM
QUANTITY NAME: IC50

Some molecules with recorded IC50:
C=CCC1(C(C)CCC)C(=O)NC(=O)NC1=O (centres undefined): Not Active
NC1=NC(=O)C(c2ccccc2)O1 (centres undefined): Not Active
COc1cc2c3cc1Oc1cc(ccc1O)C[C@@H]1c4c(cc(OC)c(O)c4Oc4ccc(cc4)C[C@@H]3N(C)CC2)CC[N+]1(C)C.[Cl-]: Not Active
C=C(C)C1(O)OC(=O)C=C1OC (centres undefined): Not Active
CC1(C)S[C@@H]2[C@H](NC(=O)Cc3ccccc3)C(=O)N2[C@H]1C(=O)O: Not Active
CC(C)(C)NC(=O)[C@@H]1C[C@@H]2CCCC[C@@H]2CN1C[C@@H](O)[C@H](Cc1ccccc1)NC(=O)[C@H](CC(N)=O)NC(=O)c1ccc2ccccc2n1: Not Active
CC(O)CO (centres undefined): Not Active
CCCCN1CCCC[C@H]1C(=O)Nc1c(C)cccc1C: Not Active

Consider the record given below.
Lookup: Give the measured IC50 of CCCC1O[C@@H]2C[C@H]3[C@@H]4CCC5=CC(=O)C=C[C@]5(C)[C@H]4[C@@H](O)C[C@]3(C)[C@]2(C(=O)CO)O1 (some centres undefined) [BUDESONIDE] .
Found: Not Active

###

Experiment: DRUGMATRIX: Sodium/nucleoside co-transporter radioligand binding (ligand: nitrobenzylthioinosine)
Format: cell membranes, Cavia porcellus, Dunkin-Hartley, Cerebral cortex, Membrane
Conditions: Not Active = under 50% inhibition at 10 µM
QUANTITY NAME: IC50

Some compounds with recorded IC50:
CC(C)(C)NCC(O)c1cc(Cl)c(N)c(Cl)c1 (stereo not given) [CLENBUTEROL]: Not Active
Cc1c(C)c2c(c(C)c1O)CC[C@@](C)(CCC[C@H](C)CCC[C@H](C)CCCC(C)C)O2 [ALPHA-TOCOPHEROL]: Not Active
CC(C)C(Br)C(=O)NC(N)=O (stereo not given) [BROMISOVALUM]: Not Active
CCOc1ccc(NC(C)=O)cc1 [PHENACETIN]: Not Active

Quick batch: IC50 for everything below.
1. CC1CC(OC(=O)C(O)c2ccccc2)CC(C)(C)C1 (stereo not given) [CYCLANDELATE]
2. CNCCc1ccccn1 [BETAHISTINE]
3. CSc1ccc(/C=C2/C(C)=C(CC(=O)O)c3cc(F)ccc32)cc1 [SULINDAC SULFIDE]

Found:
1. Not Active
2. Not Active
3. Not Active

Quick batch: IC50 for everything below.
1. CCCOc1ccccc1-c1nc2nn[nH]c2c(=O)[nH]1 [ZAPRINAST]
2. Cc1onc(O)c1CC(N)C(=O)O (racemic) [(R,S)-AMPA]
3. CC[C@@]1(O)C[C@H](O[C@H]2C[C@H](N(C)C)[C@H](O[C@H]3C[C@H](O)[C@H](O[C@H]4CCC(=O)[C@H](C)O4)[C@H](C)O3)[C@H](C)O2)c2c(cc3c(c2O)C(=O)c2c(O)cccc2C3=O)[C@H]1C(=O)OC [ACLARUBICIN]

Found:
["Not Active", "Not Active", "Not Active"]
